Recorded values, source ChEMBL document CHEMBL1208718.

biological target: Cannabinoid receptor 1 (Homo sapiens); assay: Inhibition of human recombinant CB1 receptor expressed in CHO cells
REPORTED ENDPOINT: pIC50
Please report pIC50 as the negative decimal logarithm of the molar concentration, giving only the number.

QUERY: Please report the recorded pIC50 for `CS(=O)(=O)NCCCn1c(C(=O)N2CCC(C(N)=O)(N3CCC(F)(F)CC3)CC2)cc(-c2ccc(Cl)cc2Cl)c1-c1ccc(Cl)cc1` .
RESULT: 8.85

----------
assay: AUC (0 to 24 hrs) ratio in brain to plasma of Swiss CD1 mouse at 10 mg/kg, po; assay type: ADME, organism-based; parameters: dose 10 mg/kg, route oral
REPORTED ENDPOINT: Kp
Just the number.

QUERY: Give its Kp value. Item: `CS(=O)(=O)NCCCn1c(C(=O)N2CCC(C(N)=O)(N3CCC(F)(F)CC3)CC2)cc(-c2ccc(Cl)cc2Cl)c1-c1ccc(Cl)cc1`
RESULT: 0.01

----------
assay: Drug level in Swiss CD1 mouse brain assessed per gram of tissue at 10 mg/kg, po after 6 hrs; type: ADME, organism-based; parameters: dose 10 mg/kg, route oral; details: read-out: Drug uptake
REPORTED ENDPOINT: concentration at 6 h (ng/g)
// return numeric value only (unit: ng/g, not printed)

QUERY: What value of measured concentration at 6 h is listed for `CS(=O)(=O)NCCCn1c(C(=O)N2CCC(C(N)=O)(N3CCC(F)(F)CC3)CC2)cc(-c2ccc(Cl)cc2Cl)c1-c1ccc(Cl)cc1` ?
RESULT: 6.4

----------
Assignment: determine reported IC50 for the given compounds.
target: Cannabinoid receptor 1 (Rattus norvegicus, UniProt P20272); assay: Binding affinity to CB1 receptor in rat brain synaptosomal membranes
Sequence (P20272 whole entry): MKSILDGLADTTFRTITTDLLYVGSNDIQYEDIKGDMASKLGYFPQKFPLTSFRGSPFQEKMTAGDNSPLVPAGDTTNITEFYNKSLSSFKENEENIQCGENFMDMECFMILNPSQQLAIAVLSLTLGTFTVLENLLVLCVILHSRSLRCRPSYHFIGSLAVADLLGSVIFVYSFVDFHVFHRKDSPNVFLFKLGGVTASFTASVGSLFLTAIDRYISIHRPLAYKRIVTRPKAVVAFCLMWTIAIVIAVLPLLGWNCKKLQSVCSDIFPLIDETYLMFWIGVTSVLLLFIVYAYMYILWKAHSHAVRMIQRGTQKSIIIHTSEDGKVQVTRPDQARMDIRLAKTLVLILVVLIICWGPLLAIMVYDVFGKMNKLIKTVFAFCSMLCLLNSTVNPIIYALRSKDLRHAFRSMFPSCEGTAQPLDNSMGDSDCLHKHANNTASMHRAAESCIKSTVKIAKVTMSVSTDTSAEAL
Give the number; nM is assumed, so skip it.

QUERY: Fill in: IC50 of `Cn1c(C(=O)N2CCC(C(N)=O)(N3CCOCC3)CC2)cc(-c2ccc(Cl)cc2Cl)c1-c1ccc(Cl)cc1` is ___
RESULT: 34

QUERY: Would you mind doing `CC1(C)CCN(C2(C(N)=O)CCN(C(=O)c3cc(-c4ccc(Cl)cc4Cl)c(-c4ccc(Cl)cc4)n3CCCNS(C)(=O)=O)CC2)CC1` as well?
RESULT: 4.3

QUERY: How about this compound: `Cn1c(C(=O)N2CCC(C(N)=O)(c3ccccc3)CC2)cc(-c2ccc(Cl)cc2Cl)c1-c1ccc(Cl)cc1`
RESULT: 0.7

QUERY: Please answer likewise for `CS(=O)(=O)NCCCn1c(C(=O)N2CCC(C(N)=O)(N3CCCCC3)CC2)cc(-c2ccc(Cl)cc2Cl)c1-c1ccc(Cl)cc1`
RESULT: 1.4

----------
molecular target: Cannabinoid receptor 1 (Homo sapiens, UniProt P21554); assay: Antagonist activity at CB1 receptor in forskolin-stimulated human U373-MG cells assessed as inhibition of CP-55940-induced cAMP accumulation; type: functional, cell-based, U-373MG ATCC
Sequence (P21554 whole entry): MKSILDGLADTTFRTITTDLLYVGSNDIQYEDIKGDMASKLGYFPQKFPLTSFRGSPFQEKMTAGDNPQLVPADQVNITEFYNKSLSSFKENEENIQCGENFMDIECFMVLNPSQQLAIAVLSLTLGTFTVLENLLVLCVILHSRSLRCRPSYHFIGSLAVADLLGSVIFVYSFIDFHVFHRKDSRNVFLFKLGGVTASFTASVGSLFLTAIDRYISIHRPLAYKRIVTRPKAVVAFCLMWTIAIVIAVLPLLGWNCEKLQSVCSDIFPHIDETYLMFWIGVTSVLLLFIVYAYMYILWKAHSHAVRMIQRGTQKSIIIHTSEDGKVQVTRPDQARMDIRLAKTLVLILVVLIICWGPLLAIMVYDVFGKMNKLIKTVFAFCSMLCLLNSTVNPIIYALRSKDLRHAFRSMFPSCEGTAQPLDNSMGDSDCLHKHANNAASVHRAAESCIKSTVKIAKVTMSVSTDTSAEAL
REPORTED ENDPOINT: EC50 (nM)
Please give a number only; it is taken to be in nM.

QUERY: GET /values?readout=EC50&item= `CS(=O)(=O)NCCCn1c(C(=O)N2CCC(C(N)=O)(N3CCC(F)(F)CC3)CC2)cc(-c2ccc(Cl)cc2Cl)c1-c1ccc(Cl)cc1`
RESULT: 15
